Where these numbers come from: paper PMC5519634

- Target Of Assay: P2Y2 in neonatal rat cardiomyocytes (NRCMs) (Rattus norvegicus)
- Sequence (P41232 whole entry): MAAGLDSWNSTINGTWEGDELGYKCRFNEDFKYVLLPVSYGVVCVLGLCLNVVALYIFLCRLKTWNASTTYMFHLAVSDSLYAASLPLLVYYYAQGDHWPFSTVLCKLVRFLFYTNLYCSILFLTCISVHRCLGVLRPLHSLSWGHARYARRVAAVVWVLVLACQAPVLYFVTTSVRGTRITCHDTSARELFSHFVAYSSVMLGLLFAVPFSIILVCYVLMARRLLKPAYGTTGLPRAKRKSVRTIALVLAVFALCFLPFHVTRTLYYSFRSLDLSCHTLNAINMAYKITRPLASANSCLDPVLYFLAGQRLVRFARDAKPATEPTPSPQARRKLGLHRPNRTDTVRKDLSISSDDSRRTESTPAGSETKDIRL
- Method: cell-based
- Test Context: EC50 for Compound 89, NRCMs; in the presence of 1 μM ATP
Parameter: pEC50
Interpret pEC50 as the negative base-10 log of the concentration measured in mol/L.

I am curious: what pEC50 value has been reported for "CCN(Cc1ccc(F)cc1)Cc1cc(=O)c2ccc(C)c(C)c2[nH]1" ?
5.89

###

- Target Of Assay: mouse P2Y2 receptors (Mus musculus, UniProt P35383)
- Construct: expressed in transfected cells
- Sequence (P35383 whole entry): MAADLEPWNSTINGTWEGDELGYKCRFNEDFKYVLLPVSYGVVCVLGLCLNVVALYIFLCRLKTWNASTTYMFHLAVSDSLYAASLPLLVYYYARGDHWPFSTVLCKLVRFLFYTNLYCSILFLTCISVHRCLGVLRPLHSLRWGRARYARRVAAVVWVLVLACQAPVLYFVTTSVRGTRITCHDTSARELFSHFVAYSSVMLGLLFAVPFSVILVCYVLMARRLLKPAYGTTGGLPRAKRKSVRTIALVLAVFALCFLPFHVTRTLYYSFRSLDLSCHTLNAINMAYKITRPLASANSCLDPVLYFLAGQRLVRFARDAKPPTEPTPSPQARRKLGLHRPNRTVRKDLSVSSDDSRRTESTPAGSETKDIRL
- Method: FLIPR Ca2+ mobilization assay in mP2Y2-1321N1 cells
- Type: cell-based
- Test Context: stably-expressing mP2Y2-1321N1 cells (Fig. 1b); read-out: EC50 (potency), agonistic activity
Parameter: pEC50
Interpret pEC50 as the negative base-10 log of the concentration measured in mol/L.

I am curious: what pEC50 value has been reported for "CCN(Cc1ccc(F)cc1)Cc1cc(=O)c2ccc(C)c(C)c2[nH]1" ?
5.57
